# Tested on: Candida tropicalis A. 13803
# assay_remarks: In vitro antifungal activity, microbroth dilution MIC
# Assay type: cell-based
# condition_description: RPMI-1640, 35° C., 4 to 48 hours, no growth observed
metric_name: Minimal inhibitory concentration(MIC), C. tropicalis A. 13803

> print(dat)
                                   compound        target.or.test.system     reading
1  Cc1cccc(C(=C(F)N2CCN(c3ccc(OCC4COC(Cn5ccnc5)(c5ccc(F)cc5F)O4)cc3)CC2)C(F)(F)F)c1 (mixture of isomers)  Candida tropicalis A. 13803  >100 µg/mL
2  Cc1cc(C)cc(C(=C(F)N2CCN(c3ccc(OCC4COC(Cn5ccnc5)(c5ccc(F)cc5F)O4)cc3)CC2)C(F)(F)F)c1 (mixture of isomers)  Candida tropicalis A. 13803  >100 µg/mL

Data request: Hello, please tell me recorded Minimal inhibitory concentration(MIC), C. tropicalis A. 13803 for this one: FC(Oc1ccc(OCC2COC(Cn3cncn3)(c3ccc(Cl)cc3Cl)O2)cc1)=C(c1ccccc1)C(F)(F)F (mixture of isomers)
Data returned: >100 µg/mL

###

# Tested on: Candida pseudotropicalis K. 11658
# assay_remarks: In vitro antifungal activity, microbroth dilution MIC
# Format: cell-based
# condition_description: C. pseudotropicalis K. 11658, RPMI-1640, 35° C., 4 to 48 hours
Values of Minimal inhibitory concentration (MIC) greater than or equal to 20 µg/mL map to T; values below map to F.

Data request: In plain terms: is recorded Minimal inhibitory concentration (MIC) at least 20 µg/mL for Cc1cccc(C=C(F)OCC2COC(Cn3ccnc3)(c3ccc(F)cc3F)O2)c1 (mixture of isomers) ?
Data returned: T

Data request: Hello, I need to know if FC(OCC1COC(Cn2ccnc2)(c2ccc(Cl)cc2Cl)O1)=C(c1ccc(Cl)cc1)C(F)(F)F (stereo not drawn) has measured Minimal inhibitory concentration (MIC) not below 20 µg/mL. Thanks!
Data returned: F

Data request: Does the reported Minimal inhibitory concentration (MIC) for FC(=Cc1ccc2c(c1)OCO2)OCC1COC(Cn2ccnc2)(c2ccc(F)cc2F)O1 (mixture of isomers) fall at or above the 20 µg/mL mark?
Data returned: F

Data request: I'd appreciate it if you could say whether FC(OCC1COC(Cn2ccnc2)(c2ccc(Cl)cc2Cl)O1)=C(c1cccc(Cl)c1)C(F)(F)F (stereo not drawn) has Minimal inhibitory concentration (MIC) at least equal to 20 µg/mL.
Data returned: T

Data request: Is the recorded value of Minimal inhibitory concentration (MIC) equal to or greater than 20 µg/mL for this compound? Cc1ccc(C=C(F)OCC2COC(Cn3ccnc3)(c3ccc(F)cc3F)O2)cc1 (mixture of isomers)
Data returned: F

Data request: Would you say Cc1cccc(C(=C(F)OCC2COC(Cn3ccnc3)(c3ccc(Cl)cc3Cl)O2)C(F)(F)F)c1 (stereo not drawn) shows Minimal inhibitory concentration (MIC) at minimum 20 µg/mL?
Data returned: T

Data request: I'd appreciate it if you could say whether FC(OCC1COC(Cn2ccnc2)(c2ccc(Cl)cc2Cl)O1)=C(c1ccc2c(c1)OCO2)C(F)(F)F (stereo not drawn) has Minimal inhibitory concentration (MIC) at least equal to 20 µg/mL.
Data returned: T

Data request: Would you say Cc1ccc(C=C(F)OCC2COC(Cn3ccnc3)(c3ccc(Cl)cc3Cl)O2)cc1 (stereo not drawn) shows Minimal inhibitory concentration (MIC) at minimum 20 µg/mL?
Data returned: F

###

# Tested on: Candida albicans IFO. 1385
# assay_remarks: In vitro antifungal activity, microbroth dilution MIC
# Format: cell-based
# condition_description: C. albicans IFO. 1385, RPMI-1640, 35° C., 4 to 48 hours
The threshold is inclusive: Minimal inhibitory concentration (MIC) of exactly 0.8 µg/mL counts as 1.0; values below receive 0.0.

Below are worked cases with known answers.
> print(dat)
                                   molecule  label.class
1  COc1ccc(C=C(F)OCC2COC(Cn3ccnc3)(c3ccc(Cl)cc3Cl)O2)cc1 (centres unmarked) [Ex. 9]          1.0
2  COc1cccc(C(=C(F)OCC2COC(Cn3ccnc3)(c3ccc(Cl)cc3Cl)O2)C(F)(F)F)c1 (centres unmarked) [Example 26]          0.0
3  FC(OCC1COC(Cn2ccnc2)(c2ccc(Cl)cc2Cl)O1)=C(c1ccc(Oc2ccccc2)cc1)C(F)(F)F (centres unmarked) [Ex. 29]          1.0
4  FC(OCC1COC(Cn2ccnc2)(c2ccc(Cl)cc2Cl)O1)=C(c1cccs1)C(F)(F)F (mixture of isomers) [Ex. 35]          1.0
5  CC(C)Oc1cccc(C=C(F)OCC2COC(Cn3ccnc3)(c3ccc(F)cc3F)O2)c1 (mixture of isomers) [Ex. 45]          0.0

Data request: Item FC(=Cc1ccc(F)cc1)OCC1COC(Cn2ccnc2)(c2ccc(F)cc2F)O1 (mixture of isomers) [Ex. 49] with Minimal inhibitory concentration (MIC) of 0.8 µg/mL or above?
Data returned: 0.0

Data request: Assess whether reported Minimal inhibitory concentration (MIC) for FC(OCC1COC(Cn2ccnc2)(c2ccc(Cl)cc2Cl)O1)=C(c1ccc(F)cc1)C(F)(F)F (mixture of isomers) [Ex. 33] sits at 0.8 µg/mL or higher.
Data returned: 1.0

Data request: Kindly determine if Minimal inhibitory concentration (MIC) recorded for FC(OCC1COC(Cn2ccnc2)(c2ccc(F)cc2F)O1)=C(c1ccc(Oc2ccccc2)cc1)C(F)(F)F (mixture of isomers) [Ex. 63] is above or exactly 0.8 µg/mL.
Data returned: 1.0

Data request: Does the reported Minimal inhibitory concentration (MIC) for Cc1cccc(C=C(F)OCC2COC(Cn3cncn3)(c3ccc(Cl)cc3Cl)O2)c1 (mixture of isomers) [Ex. 70] fall at or above the 0.8 µg/mL mark?
Data returned: 1.0

Data request: Is Minimal inhibitory concentration (MIC) at least 0.8 µg/mL? Consider FC(=Cc1cccc2ccccc12)OCC1COC(Cn2ccnc2)(c2ccc(F)cc2F)O1 (mixture of isomers) [Ex. 51]
Data returned: 0.0

###

Parameter: Minimal inhibitory concentration (MIC). Scope: all listed entries.
# Test system: Cryptococcus neoformans IFM. 40092
# assay_remarks: In vitro antifungal activity, microbroth dilution MIC
# Type: cell-based
# condition_description: Cry. neoformans IFM. 40092, RPMI-1640, 35° C., 4 to 48 hours
# value in µg/mL; strip the unit string

Please review the entries below; each comes with its answer.
> print(dat)
                                   molecule                             metric.name  reading
1  FC(OCC1COC(Cn2ccnc2)(c2ccc(Cl)cc2Cl)O1)=C(c1cc(Cl)cc(Cl)c1)C(F)(F)F (mixture of isomers)  Minimal inhibitory concentration (MIC)     0.39
2  CCc1ccc(C(=C(F)OCC2COC(Cn3ccnc3)(c3ccc(Cl)cc3Cl)O2)C(F)(F)F)cc1 (stereo not shown)  Minimal inhibitory concentration (MIC)     0.78
3  Cc1ccc(C=C(F)OCC2COC(Cn3ccnc3)(c3ccc(F)cc3F)O2)cc1C (mixture of isomers)  Minimal inhibitory concentration (MIC)     0.20

Moving on to the next molecule.
Data request: Hello, please tell me recorded Minimal inhibitory concentration (MIC) for this one: Cc1cc(C)c(C=C(F)OCC2COC(Cn3ccnc3)(c3ccc(Cl)cc3Cl)O2)cc1C (stereo not shown)
Data returned: 0.78

###

Minimal inhibitory concentration (MIC) for assorted compounds
# System: Aspergillus furnigatus B. 19119
# assay_remarks: In vitro antifungal activity, microbroth dilution MIC
# Assay type: cell-based
# condition_description: A furnigatus B. 19119, RPMI-1640, 35° C., 4 to 48 hours
Express the result in µg/mL but write the number alone.

Some solved entries appear below for comparison.
> print(dat)
                                   compound                             metric.name  reading
1  FC(OCC1COC(Cn2ccnc2)(c2ccc(Cl)cc2Cl)O1)=C(c1ccc(Cl)cc1)C(F)(F)F (stereo not shown)  Minimal inhibitory concentration (MIC)     6.25
2  COc1cccc(C=C(F)OCC2COC(Cn3ccnc3)(c3ccc(F)cc3F)O2)c1 (mixture of isomers)  Minimal inhibitory concentration (MIC)     12.5
3  FC(OCC1COC(Cn2ccnc2)(c2ccc(Cl)cc2Cl)O1)=C(c1cc(Cl)cc(Cl)c1)C(F)(F)F (mixture of isomers)  Minimal inhibitory concentration (MIC)     3.13
4  FC(OCC1COC(Cn2ccnc2)(c2ccc(F)cc2F)O1)=C(c1cc(Cl)cc(Cl)c1)C(F)(F)F (mixture of isomers)  Minimal inhibitory concentration (MIC)     3.13
5  Cc1cc(C)c(C=C(F)OCC2COC(Cn3ccnc3)(c3ccc(F)cc3F)O2)cc1C (mixture of isomers)  Minimal inhibitory concentration (MIC)     12.5
6  FC(OCC1COC(Cn2ccnc2)(c2ccc(Cl)cc2Cl)O1)=C(c1cccc(F)c1)C(F)(F)F (mixture of isomers)  Minimal inhibitory concentration (MIC)     50.0

Data request: Provide Minimal inhibitory concentration (MIC) value for the following compound: CCc1ccc(C(=C(F)OCC2COC(Cn3ccnc3)(c3ccc(F)cc3F)O2)C(F)(F)F)cc1 (mixture of isomers)
Data returned: 100

# credit: patent US6376497B1
